The origin of these recorded values is patent US20100129369A1.

# tgt: T1, human c-Met ECD-Fc-Flis (human)
# T1 construct: c-Met ECD fused to Fc with flag- and His-tag at the C-terminus; also called human c-Met extracellular domain (ECD)-Fc-Flis fusion; human c-Met-Flis-Fc ECD
# procedure.text: HGF-blocking ELISA: HGF signal on coated c-Met ECD-Fc-Flis; Ab 31250.00 ng/mL
Quick list: AVG A450 nm per entry.

[
  {
    "binder": "C8-co-16 (antibody, human IgG2, kappa, V domains shown, Named IgG4 kappa; also called C8-co-16 IgG4) VH: QVQLVQSGAEVKKPGASVKVSCKASGYTFTDYYMHWVRQAPGQGLEWMGRVNPYRGSTTYNQKFEGRVTMTTDTSTSTAYMELRSLRSDDTAVYYCARANILDYWGQGTTVTVSS VL: DIQMTQSPSSLSASVGDRVTITCSVSSSVRSIYLHWYQQKPGKAPKLLIYSTSNLASGVPSRFSGSGSGTDFTLTISSLQPEDFATYYCQVYRGYPLTFGGGTKVEIKR",
    "AVG A450 nm": "0.56 A450 nm"
  },
  {
    "binder": "D11-S17Y (antibody, human IgG2, kappa, V domains shown, Human engineered IgG2 kappa c-Met antibody; also called D11-S17Y IgG2) VH: QVQLVQSGAEVKKPGSSVKVSCKASGYTFTSRYIHWVRQAPGQGLEWMGWIYPVTGDTYYNEKFKGRVTITADKSTSTAYMELSSLRSEDTAVYYCARGYGAFYYWGQGTLVTVSS VL: EIVLTQSPGTLSLSPGERATLSCSVSSSISSTNLHWYQQKPGQAPRLLIYGTSYLASGIPDRFSGSGSGTDFTLTISRLEPEDFAVYYCQQWSSYPYSFGQGTKLEIKR",
    "AVG A450 nm": "1.17 A450 nm"
  },
  {
    "binder": "C8-6 (antibody, human IgG2, kappa, V domains shown, Named IgG4 kappa; also called C8-6 IgG4) VH: QVQLVQSGAEVKKPGASVKVSCKASGYTFTDYYMHWVRQAPGQGLEWMGRVNPNRGGTTYNQKFEGRVTMTTDTSTSTAYMELRSLRSDDTAVYYCARTNWLDYWGQGTTVTVSS VL: DIQMTQSPSSLSASVGDRVTITCSVSSSVSSIYLHWYQQKPGKAPKLLIYSTSNLASGVPSRFSGSGSGTDFTLTISSLQPEDFATYYCIQYSGYPLTFGGGTKVEIKR",
    "AVG A450 nm": "0.98 A450 nm"
  },
  {
    "binder": "D11-8B8 (antibody, human IgG2, kappa, V domains shown, Human engineered IgG2 kappa c-Met antibody; also called Mab D11-8B8; D11-8B8 IgG2) VH: QVQLVQSGAEVKKPGSSVKVSCKASGYTFTSRYIHWVRQAPGQGLEWMGWIYPVTGDTYYIEKFKGRVTITADKSTSTAYMELSSLRSEDTAVYYCARGYGAFFYWGQGTLVTVSS VL: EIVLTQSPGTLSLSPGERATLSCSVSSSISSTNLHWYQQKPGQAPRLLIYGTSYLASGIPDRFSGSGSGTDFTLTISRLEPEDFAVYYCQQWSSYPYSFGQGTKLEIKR",
    "AVG A450 nm": "1.31 A450 nm"
  }
]
